# Tested on: HT29 colon
# method-description: NCI tumour cell line growth inhibition, 48 h
Entries and their TGI values follow.

{"columns": ["compound", "endpoint-value"],
 "data": [
  ["COCC1(CO)C(=O)C2CCN1CC2 (stereo not given)", "> 63.9 µM"],
  ["O=C1NC(=O)C(c2c[nH]c3ccccc23)=C1c1cn(C(c2ccccc2)(c2ccccc2)c2ccccc2)cn1", "13.3 µM"],
  ["O=C(c1ccccc1)c1c(-c2ccccc2)n(-c2ccccc2)[nH]c(=O)c1=O", "> 100 µM"],
  ["Cc1nc2ccc(NC(=S)Nc3ccccc3)cc2c(=O)n1-c1ccccc1", "> 100 µM"],
  ["Cc1ccc(S(=O)(=O)c2ccc(N)cc2)cc1", "> 100 µM"],
  ["Cc1c(C)n(-c2ccccc2)c2nc(S(C)(=O)=O)nc(S(C)(=O)=O)c12", "3.74 µM"],
  ["Cc1ccccc1N/C(=C(/C(Cl)=C(Cl)Cl)[N+](=O)[O-])n1nnc2ccccc21", "35.5 µM"],
  ["COC(=O)CC1C=CC(C)(OC)OO1 (stereo not given)", "> 100 µM"]
]}

Data request: Given the entry `Cc1nc(-[n+]2nc(-c3ccncc3)nn2-c2ccccc2)sc1C` , report its measured TGI.
Data returned: > 100 µM

Data request: Given the entry CC(C)(C)OC(=O)NC(Cc1ccc(OC(C)(C)C)cc1)C(=O)N[C@H]1CCC[C@H]1C(=O)NC(Cc1ccccc1)C(=O)N1CCCC1C(N)=O (stereo not given in full) , report its measured TGI.
Data returned: > 100 µM

Data request: Given the entry CC(C)C(=O)Nc1nc2c(ncn2C2OC(CO)C(O)C2O)c(=O)[nH]1 (stereo not given) , report its measured TGI.
Data returned: > 100 µM

Data request: Given the entry `CSc1ccc2c(c1)C(=O)c1c-2n(CCCBr)c(=O)c2cc([N+](=O)[O-])ccc12` , report its measured TGI.
Data returned: > 100 µM

Data request: Given the entry `COc1ccc2c(c1)C(=O)OCCC2` , report its measured TGI.
Data returned: > 100 µM

The measured values listed here are drawn from PubChem BioAssay (NCI).
